Cited source: patent USRE38132E1

- assay target: interaction of ICAM-1 with the Leukointegrin CD18/CD11a (LFA-1) (Homo sapiens, UniProt P05107+P20701)
- Construct: endogenous in cells; sICAM-1: made in house, secreted from transfected CHO DUX cells
- Sequence (P20701 26-1170): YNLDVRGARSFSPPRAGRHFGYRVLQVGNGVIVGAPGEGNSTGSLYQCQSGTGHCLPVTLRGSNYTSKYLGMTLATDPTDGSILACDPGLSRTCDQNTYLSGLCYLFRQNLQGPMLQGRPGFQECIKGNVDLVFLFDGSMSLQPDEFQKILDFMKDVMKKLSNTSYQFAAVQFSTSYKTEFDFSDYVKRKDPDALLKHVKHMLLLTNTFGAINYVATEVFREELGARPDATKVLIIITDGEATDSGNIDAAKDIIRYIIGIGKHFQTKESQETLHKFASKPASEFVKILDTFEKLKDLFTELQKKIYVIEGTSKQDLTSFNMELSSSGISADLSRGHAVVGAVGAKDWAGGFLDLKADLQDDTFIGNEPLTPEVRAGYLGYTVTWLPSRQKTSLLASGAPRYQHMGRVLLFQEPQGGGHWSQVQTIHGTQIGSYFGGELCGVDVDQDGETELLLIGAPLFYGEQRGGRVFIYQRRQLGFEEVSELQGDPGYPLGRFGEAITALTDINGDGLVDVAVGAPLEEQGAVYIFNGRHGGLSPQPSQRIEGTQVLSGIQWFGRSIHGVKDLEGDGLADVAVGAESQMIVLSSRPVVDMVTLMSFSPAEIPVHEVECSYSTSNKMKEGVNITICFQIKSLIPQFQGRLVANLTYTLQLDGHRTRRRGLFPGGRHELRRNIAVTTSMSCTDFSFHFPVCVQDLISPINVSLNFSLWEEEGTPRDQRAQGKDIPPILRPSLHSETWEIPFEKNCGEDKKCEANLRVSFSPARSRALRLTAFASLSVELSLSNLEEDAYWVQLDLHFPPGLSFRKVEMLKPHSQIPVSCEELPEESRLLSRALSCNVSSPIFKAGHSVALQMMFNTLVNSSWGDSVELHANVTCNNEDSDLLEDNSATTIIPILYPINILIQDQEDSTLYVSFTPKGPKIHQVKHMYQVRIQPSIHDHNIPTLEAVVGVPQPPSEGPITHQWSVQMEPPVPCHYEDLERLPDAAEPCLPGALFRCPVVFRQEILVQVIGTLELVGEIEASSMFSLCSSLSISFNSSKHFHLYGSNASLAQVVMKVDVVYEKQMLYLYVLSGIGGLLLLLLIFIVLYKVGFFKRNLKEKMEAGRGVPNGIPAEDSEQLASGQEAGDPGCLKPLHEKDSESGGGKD
- Sequence (P05107 23-769): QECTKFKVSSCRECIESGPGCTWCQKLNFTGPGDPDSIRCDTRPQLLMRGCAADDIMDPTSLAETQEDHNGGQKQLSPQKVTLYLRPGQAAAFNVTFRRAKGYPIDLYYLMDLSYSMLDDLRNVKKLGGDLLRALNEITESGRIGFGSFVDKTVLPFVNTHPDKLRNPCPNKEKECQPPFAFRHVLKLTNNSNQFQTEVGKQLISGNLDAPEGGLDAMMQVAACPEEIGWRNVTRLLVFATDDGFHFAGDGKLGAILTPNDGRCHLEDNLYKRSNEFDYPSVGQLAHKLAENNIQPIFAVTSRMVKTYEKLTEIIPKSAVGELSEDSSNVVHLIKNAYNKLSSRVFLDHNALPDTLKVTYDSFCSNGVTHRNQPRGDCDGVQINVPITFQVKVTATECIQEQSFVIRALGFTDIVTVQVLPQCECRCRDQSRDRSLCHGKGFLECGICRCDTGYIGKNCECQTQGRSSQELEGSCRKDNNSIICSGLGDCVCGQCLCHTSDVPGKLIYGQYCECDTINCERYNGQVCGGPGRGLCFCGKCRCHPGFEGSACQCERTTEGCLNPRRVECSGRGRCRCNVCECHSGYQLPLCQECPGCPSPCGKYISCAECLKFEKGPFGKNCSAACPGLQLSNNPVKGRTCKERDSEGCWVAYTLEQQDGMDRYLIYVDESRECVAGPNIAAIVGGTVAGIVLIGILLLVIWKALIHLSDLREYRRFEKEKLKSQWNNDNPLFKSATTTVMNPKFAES
- assay details: Assay to determine inhibition of LFA-1 binding to ICAM-1 (immunopurified LFA-1 on plate-bound sICAM-1, ELISA readout)
- details: values marked e approximated from incomplete dose-response curve
property measured: Kd

Value of measured Kd for the entry CC1(Cc2ccc(Br)cc2)OC(=O)N(c2cc(Cl)cc(Cl)c2)C1=O (centres unmarked) [Example 180] : 190 nM

Briefly, Kd measured for CC1(Cc2ccc(-c3cccc(Br)c3)cc2)NC(=O)N(c2cc(Cl)cc(Cl)c2)C1=O (centres unmarked) [Example 206] : 730 nM

Entry C[C@H](c1ccccc1)[C@@H]1C(=O)N(c2cc(Cl)cc(Cl)c2)C(=O)N1C [Example 85] ; Kd = 720 nM

Measured Kd of CN1C(=O)N(c2cc(Cl)cc(Cl)c2)C(=O)[C@@]1(C)Cc1ccc(-c2ccccn2)cc1 [Example 187] : 290 nM

Input CN1C(=O)N(c2cc(Cl)cc(Cl)c2)C(=O)C1(C)Cc1ccccc1 (centres unmarked) [Example 158] . Output Kd: 690 nM

Looking up CN1C(=O)N(c2cc(Cl)cc(Cl)c2)C(=O)C1(C)Cc1ccc(F)cc1 (centres unmarked) [Example 146] , I found its Kd recorded as 130 nM

The molecule identified as CC1(Cc2ccc(F)c(C(F)(F)F)c2)NC(=O)N(c2cc(Cl)cc(Cl)c2)C1=O (centres unmarked) [Example 69] registered its Kd at ~70000 nM

Item: O=C1NC(c2ccccc2)C(=O)N1c1cc(Cl)cc(Cl)c1 (centres unmarked) [Example 6] | Kd: 12800 nM

====

- assay target: interaction of ICAM-1 with the Leukointegrin CD18/CD11a (LFA-1) (Homo sapiens, UniProt P05107+P20701)
- Construct: endogenous in cells; sICAM-1: made in house, secreted from transfected CHO DUX cells
- assay details: Assay to determine inhibition of LFA-1 binding to ICAM-1 (immunopurified LFA-1 on plate-bound sICAM-1, ELISA readout)
- details: values marked e approximated from incomplete dose-response curve
property measured: Kd (nM)
Report the value in nM with no unit label.

Noted for CN1C(=O)N(c2cc(Cl)cc(Cl)c2)C(=O)[C@@]1(C)Cc1ccc(C#N)cc1 [Example 127] : its Kd reads 50

Form field Kd, entry CC1(Cc2cc(F)cc(F)c2)NC(=O)N(c2cc(Cl)cc(Cl)c2)C1=O (stereo not shown) [Example 58] : 2850

Entry under test: O=C1N[C@H](Cc2ccccc2)C(=O)N1c1cc(Cl)cc(Cl)c1 [Example 15] . Its Kd was 2300

Per the record, CC1(Cc2ccc(Br)cc2)C(=O)N(c2cc(Cl)cc(Cl)c2)C(=O)N1C1CC1 (stereo not shown) [Example 169] has Kd of 50

====

- System: SKW3 cells
Could you please report measured Cellular Toxicity Assay MTT LD50 for the items listed next?

Just so you know, measured Cellular Toxicity Assay MTT LD50 for C[C@@]1(Cc2ccc(Br)cc2)C(=O)N(c2cc(Cl)cc(Cl)c2)C(=O)N1CCCCCC#N came out at 300 µM

Record summary for CC(C)N1C(=O)N(c2cc(Cl)cc(Cl)c2)C(=O)[C@]1(C)Cc1ccc(Br)cc1 : reported Cellular Toxicity Assay MTT LD50 = 200 to 300 µM

Reported Cellular Toxicity Assay MTT LD50 for CC(=O)N1C(=O)N(c2cc(Cl)cc(Cl)c2)C(=O)[C@@]1(C)Cc1ccc(C#N)cc1 was 125 to 250 µM

Reported Cellular Toxicity Assay MTT LD50 ( O=C1N[C@@H](Cc2ccccc2)C(=O)N1c1cc(Cl)cc(Cl)c1 ) = 125 to 250 µM

What the record says about C[C@]1(Cc2ccc(C(=O)c3ccccc3)cc2)NC(=O)N(c2cc(Cl)cc(Cl)c2)C1=O [Example 184] : Cellular Toxicity Assay MTT LD50 is 50 to 100 µM

What the record says about CC1(Cc2ccc(Br)cc2)NC(=O)N(c2cc(Cl)cc(Cl)c2)C1=S (centres unmarked) : Cellular Toxicity Assay MTT LD50 is 25 to 50 µM

// CC(=O)N1C(=O)N(c2cc(Cl)cc(Cl)c2)C(=O)[C@@]1(C)Cc1ccc(Br)cc1 : Cellular Toxicity Assay MTT LD50 value = >400 µM

For record CN1C(=O)N(c2cc(Cl)cc(Cl)c2)C(=O)[C@@H]1Cc1ccccc1 the listed Cellular Toxicity Assay MTT LD50 is >500 µM

Cellular Toxicity Assay MTT LD50 reported for this compound CN1C(=O)N(c2cc(Cl)c(F)c(Cl)c2)C(=O)[C@@]1(C)Cc1ccc(Br)cc1 : 100 to 200 µM

compound CC(C)N1C(=O)N(c2cc(Cl)cc(Cl)c2)C(=O)C1Cc1ccccc1 (centres unmarked) , Cellular Toxicity Assay MTT LD50 observed: >500 µM

Value of measured Cellular Toxicity Assay MTT LD50 for the entry C[C@]1(Cc2ccc(Br)cc2)NC(=O)N(c2cc(Cl)c(Cl)c(Cl)c2)C1=O : 25 to 50 µM

Quick note, Cellular Toxicity Assay MTT LD50 for Cc1cc(Br)cc(C)c1C[C@]1(C)C(=O)N(c2cc(Cl)cc(Cl)c2)C(=O)N1C landed at 200 to 400 µM

Briefly, Cellular Toxicity Assay MTT LD50 measured for CN1C(=O)N(c2cc(C(F)(F)F)cc(C(F)(F)F)c2)C(=O)C1(C)Cc1ccccc1 (centres unmarked) [Example 83] : 250 to 500 µM

Value of measured Cellular Toxicity Assay MTT LD50 for the entry C[C@H](c1ccccc1)[C@]1(C)C(=O)N(c2cc(Cl)cc(Cl)c2)C(=O)N1C : 250 to 500 µM

get_value(item= C[C@H](c1ccccc1)[C@H]1NC(=O)N(c2cc(Cl)cc(Cl)c2)C1=O , readout=Cellular Toxicity Assay MTT LD50) returns 125 to 250 µM

response.value for C[C@@]1(Cc2ccc(Br)cc2)C(=O)N(c2cc(Cl)cc(Cl)c2)C(=O)N1CCCCn1ccnc1 (field: Cellular Toxicity Assay MTT LD50) = 17 to 20 µM

Lab note: measured Cellular Toxicity Assay MTT LD50 of CN1C(=O)N(c2cc(Cl)cc(Cl)c2)C(=O)C1(C)Cc1cc(Br)cc(Br)c1 (centres unmarked) was 100 to 200 µM

Recorded Cellular Toxicity Assay MTT LD50 (compound C[C@@]1(Cc2ccc(Br)cc2)C(=O)N(c2cc(Cl)cc(Cl)c2)C(=O)N1CCCS(=O)(=O)O ): 200 to 400 µM

// recorded Cellular Toxicity Assay MTT LD50 for C[C@@]1(Cc2ccc(Br)cc2)C(=O)N(c2cc(Cl)cc(Cl)c2)C(=O)N1Cc1cccc(O)c1 : 25 to 50 µM

Entry CN1C(=O)N(c2cc(Cl)cc(Cl)c2)C(=O)[C@@]1(C)Cc1ccc(C#N)cc1 , Cellular Toxicity Assay MTT LD50 reported as 125 to 250 µM

====

- Test system: SKW3 cells
property measured: Cellular Toxicity Assay MTT LD50

Cellular Toxicity Assay MTT LD50 recorded for this compound, CCC1(Cc2ccc(Br)cc2)C(=O)N(c2cc(Cl)cc(Cl)c2)C(=O)N1C (centres unmarked) , is 165 µM

Entry under test: C[C@@]1(Cc2ccc(Br)cc2)C(=O)N(c2cc(Cl)cc(Cl)c2)C(=O)N1C(=O)[C@H]1CCCN1 . Its Cellular Toxicity Assay MTT LD50 was 100 to 200 µM

Entry CN1C(=O)N(c2cc(Cl)cc(Cl)c2)C(=O)C1Cc1ccccc1 (centres unmarked) ; Cellular Toxicity Assay MTT LD50 = 250 to 500 µM

The compound listed as O=C1CC(Cc2ccccc2)C(=O)N1c1cc(Cl)cc(Cl)c1 (centres unmarked) has a reported Cellular Toxicity Assay MTT LD50 of >500 µM

Reported Cellular Toxicity Assay MTT LD50 for O=C1NC(c2ccccc2)C(=O)N1c1cc(Cl)cc(Cl)c1 (centres unmarked) was 250 to 500 µM

# Cellular Toxicity Assay MTT LD50 of C[C@@]1(Cc2ccc(Br)cc2)C(=O)N(c2cc(Cl)cc(Cl)c2)C(=O)N1C1CCNCC1 = <25 µM

Briefly, Cellular Toxicity Assay MTT LD50 measured for CCC1(Cc2ccccc2)C(=O)N(c2cc(Cl)cc(Cl)c2)C(=O)N1C (centres unmarked) : 100 to 200 µM

Consider CCCC1(Cc2ccc(Br)cc2)C(=O)N(c2cc(Cl)cc(Cl)c2)C(=O)N1C (centres unmarked) . Its measured Cellular Toxicity Assay MTT LD50 is 200 to 400 µM

Measured Cellular Toxicity Assay MTT LD50, C[C@H](c1ccccc1)[C@@H]1C(=O)N(c2cc(Cl)cc(Cl)c2)C(=O)N1C : >500 µM

Entry CC(=O)N1C(=O)N(c2cc(Cl)cc(Cl)c2)C(=O)[C@@]1(C)Cc1ccc(-c2cccnc2)cc1 , Cellular Toxicity Assay MTT LD50 reported as >400 µM

Quick note, Cellular Toxicity Assay MTT LD50 for CCCN1C(=O)N(c2cc(Cl)cc(Cl)c2)C(=O)C1(C)Cc1ccccc1 (centres unmarked) landed at >500 µM
